Molecular target: 11β-hsd-1 enzyme (Homo sapiens, UniProt P28845)
Sequence (P28845 whole entry, species assumed): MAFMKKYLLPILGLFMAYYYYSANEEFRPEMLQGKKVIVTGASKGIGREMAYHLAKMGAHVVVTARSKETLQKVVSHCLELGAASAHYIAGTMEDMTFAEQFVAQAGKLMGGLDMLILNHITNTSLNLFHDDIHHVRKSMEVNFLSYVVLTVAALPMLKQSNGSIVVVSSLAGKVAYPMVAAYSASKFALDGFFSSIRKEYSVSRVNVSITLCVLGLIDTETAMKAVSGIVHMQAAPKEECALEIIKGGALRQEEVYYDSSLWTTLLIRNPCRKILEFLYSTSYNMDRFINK
Assay: biochemical
pKi: −log10 of the molar value.

[
  {
    "molecule": "O=S(=O)(Nc1ccc2ccccc2n1)N1CCN(c2ncccn2)CC1 [Example 154]",
    "assayed_target": "11β-hsd-1 enzyme (Homo sapiens, UniProt P28845)",
    "pKi": 8.29
  },
  {
    "molecule": "CCc1cccc(NS(=O)(=O)N2CCC(Cc3ccccc3)CC2)n1 [Example 116]",
    "assayed_target": "11β-hsd-1 enzyme (Homo sapiens, UniProt P28845)",
    "pKi": 7.74
  },
  {
    "molecule": "CCc1cccc(NS(=O)(=O)N2CCC(Oc3ccccc3)CC2)n1 [Example 123]",
    "assayed_target": "11β-hsd-1 enzyme (Homo sapiens, UniProt P28845)",
    "pKi": 7.66
  },
  {
    "molecule": "Cc1cccc(NS(=O)(=O)N2CCN(c3cccc(C)n3)CC2)n1 [Example 131]",
    "assayed_target": "11β-hsd-1 enzyme (Homo sapiens, UniProt P28845)",
    "pKi": 7.54
  },
  {
    "molecule": "Cc1cccc(NS(=O)(=O)N2CCCN(C(=O)OCc3ccccc3)CC2)n1 [Example 134]",
    "assayed_target": "11β-hsd-1 enzyme (Homo sapiens, UniProt P28845)",
    "pKi": 6.96
  },
  {
    "molecule": "CCc1cccc(NS(=O)(=O)N2CCC(c3ccnc(N(C)C)n3)CC2)n1 [Example 81]",
    "assayed_target": "11β-hsd-1 enzyme (Homo sapiens, UniProt P28845)",
    "pKi": 6.64
  },
  {
    "molecule": "CCOC(=O)N1CCN(S(=O)(=O)Nc2cccc(CC)n2)CC1 [Example 196]",
    "assayed_target": "11β-hsd-1 enzyme (Homo sapiens, UniProt P28845)",
    "pKi": 7.70
  },
  {
    "molecule": "CCc1cccc(NS(=O)(=O)N2CCC(CCc3ccccc3)CC2)n1 [Example 104]",
    "assayed_target": "11β-hsd-1 enzyme (Homo sapiens, UniProt P28845)",
    "pKi": 8.16
  },
  {
    "molecule": "Cc1cccc(NS(=O)(=O)N2CCN(c3ncc(C(F)(F)F)cc3Cl)CC2)n1 [Example 128]",
    "assayed_target": "11β-hsd-1 enzyme (Homo sapiens, UniProt P28845)",
    "pKi": 7.89
  },
  {
    "molecule": "N#Cc1ccc(N2CCCN(S(=O)(=O)Nc3ccc4ccccc4n3)CC2)nc1 [Example 45]",
    "assayed_target": "11β-hsd-1 enzyme (Homo sapiens, UniProt P28845)",
    "pKi": 7.28
  },
  {
    "molecule": "Cc1cccc(NS(=O)(=O)N2CCC(c3ccc(C#N)cn3)CC2)n1 [Example 33]",
    "assayed_target": "11β-hsd-1 enzyme (Homo sapiens, UniProt P28845)",
    "pKi": 7.30
  },
  {
    "molecule": "N#Cc1cccnc1N1CCN(S(=O)(=O)Nc2ccc3ccccc3n2)CC1 [Example 162]",
    "assayed_target": "11β-hsd-1 enzyme (Homo sapiens, UniProt P28845)",
    "pKi": 7.59
  },
  {
    "molecule": "CCOC(=O)N1CCN(S(=O)(=O)Nc2ccc3ccccc3n2)CC1 [Example 160]",
    "assayed_target": "11β-hsd-1 enzyme (Homo sapiens, UniProt P28845)",
    "pKi": 7.96
  },
  {
    "molecule": "CCc1cccc(NS(=O)(=O)N2CCCC(COC)CC2)n1 (stereo not shown) [Example 93]",
    "assayed_target": "11β-hsd-1 enzyme (Homo sapiens, UniProt P28845)",
    "pKi": 6.96
  },
  {
    "molecule": "CCc1cccc(NS(=O)(=O)N2CCC(c3ccc(F)cc3)CC2)n1 [Example 68]",
    "assayed_target": "11β-hsd-1 enzyme (Homo sapiens, UniProt P28845)",
    "pKi": 8.27
  },
  {
    "molecule": "Cc1cc(C)nc(NS(=O)(=O)N2CCN(c3ccc(C#N)cn3)[C@H](C)C2)c1 [Example 28]",
    "assayed_target": "11β-hsd-1 enzyme (Homo sapiens, UniProt P28845)",
    "pKi": 9.18
  },
  {
    "molecule": "Cc1cccc(NS(=O)(=O)N2CCCN(c3ccc(C#N)cn3)CC2)n1 [Example 44]",
    "assayed_target": "11β-hsd-1 enzyme (Homo sapiens, UniProt P28845)",
    "pKi": 7.47
  },
  {
    "molecule": "Cc1ccc(C2(C)CN(S(=O)(=O)Nc3ccc4ccccc4n3)CCO2)cc1 (stereo not shown) [Example 87]",
    "assayed_target": "11β-hsd-1 enzyme (Homo sapiens, UniProt P28845)",
    "pKi": 7.60
  },
  {
    "molecule": "Cc1cccc(NS(=O)(=O)N2CCCC(c3ccccc3)CC2)n1 (stereo not shown) [Example 84]",
    "assayed_target": "11β-hsd-1 enzyme (Homo sapiens, UniProt P28845)",
    "pKi": 8.09
  }
]

###

Biological target: 11β-hsd-1 enzyme (Homo sapiens, UniProt P28845)
Assay: biochemical
Settings: read-out: % Inh @ 0.1 mM
Each entry below carries its recorded inhibition.
value_kind: inhibition (%)

[
  {
    "compound": "CCc1cccc(NS(=O)(=O)N2CCC(c3cccc(C(N)=O)c3)CC2)n1 [Example 75]",
    "observed_value": 45.6
  },
  {
    "compound": "CCc1cccc(NS(=O)(=O)N2CCC(C)CC2)n1 [Example 117]",
    "observed_value": 65.2
  },
  {
    "compound": "CCc1cccc(NS(=O)(=O)N2CCC(Cc3ccccc3)CC2)n1 [Example 116]",
    "observed_value": 100
  },
  {
    "compound": "Cc1cccc(NS(=O)(=O)N2CCN(c3nc4ncccc4o3)CC2)n1 [Example 152]",
    "observed_value": 47.6
  },
  {
    "compound": "COc1cccc(N2CCN(S(=O)(=O)Nc3cccc(C)n3)CC2)n1 [Example 136]",
    "observed_value": 93.7
  }
]

###

Measured inhibition at 0.1 µM of individual entries
Biological target: 11β-hsd-1 enzyme (Homo sapiens)
Test: biochemical
Conditions: read-out: % Inh @ 0.1 μM
value_kind: inhibition at 0.1 µM (%)

[
  {
    "compound": "Cc1cccc(NS(=O)(=O)N2CCCC(c3ccc(F)cc3)C2)n1 (centres unmarked)",
    "observed_value": 90
  },
  {
    "compound": "Cc1cccc(NS(=O)(=O)N2CCN(c3ncccc3C(F)(F)F)CC2)n1",
    "observed_value": 44.6
  },
  {
    "compound": "Cc1cc(N)nc(NS(=O)(=O)N2CCn3c(nc4ccccc43)C2)c1",
    "observed_value": 100
  },
  {
    "compound": "O=S(=O)(Nc1ccc2ccccc2n1)N1CCN(c2ccc(C(F)(F)F)cn2)CC1",
    "observed_value": 100
  },
  {
    "compound": "Cc1cc(C)nc(NS(=O)(=O)N2CCc3ccc(S(C)(=O)=O)cc3CC2)c1",
    "observed_value": 55
  }
]

###

Molecular target: UniProt P28845
Experiment: biochemical
Settings: read-out: % Inh @ 0.1 mM

[
  {
    "compound": "CCc1cccc(NS(=O)(=O)N2CCC(c3ccc(C(=O)NC)cc3)CC2)n1",
    "inhibition, %": 34.4
  },
  {
    "compound": "Cc1cccc(NS(=O)(=O)N2CCCCCC2)n1",
    "inhibition, %": 56.7
  },
  {
    "compound": "CCc1cccc(NS(=O)(=O)N2CCCC(c3ccnc(N4CCOCC4)n3)C2)n1 (stereo not shown)",
    "inhibition, %": 92.7
  },
  {
    "compound": "CC(C)NC(=O)c1ccc(N2CCN(S(=O)(=O)Nc3ccc4ccccc4n3)CC2)nc1",
    "inhibition, %": 59.4
  },
  {
    "compound": "COc1ccc2oc(N3CCN(S(=O)(=O)Nc4cccc(C)n4)CC3)nc2c1",
    "inhibition, %": 93.8
  },
  {
    "compound": "CCc1cccc(NS(=O)(=O)N2CCN(c3nc4ncccc4o3)CC2)n1",
    "inhibition, %": 79.2
  },
  {
    "compound": "CCc1cccc(NS(=O)(=O)N2CCN(c3ncccn3)CC2)n1",
    "inhibition, %": 90.5
  },
  {
    "compound": "CCc1cccc(NS(=O)(=O)N2CCc3cc(OC)c(OC)cc3C2)n1",
    "inhibition, %": 29.4
  },
  {
    "compound": "O=S(=O)(Nc1ccc2ccccc2n1)N1CCN(c2cnccn2)CC1",
    "inhibition, %": 44.8
  },
  {
    "compound": "CCc1cccc(NS(=O)(=O)N2CCC(OCc3ccccc3)CC2)n1",
    "inhibition, %": 75.9
  },
  {
    "compound": "Cc1cccc(NS(=O)(=O)N2CCN(c3cccc(C)n3)CC2)n1",
    "inhibition, %": 93.2
  },
  {
    "compound": "CCc1cccc(NS(=O)(=O)N2CCN(c3ncc(C(F)(F)F)cc3Cl)CC2)n1",
    "inhibition, %": 92.3
  },
  {
    "compound": "CCc1cccc(NS(=O)(=O)N2CCC(Oc3ccccc3)CC2)n1",
    "inhibition, %": 100
  },
  {
    "compound": "CCc1cccc(NS(=O)(=O)N2CCCC(COC)CC2)n1 (stereo not shown)",
    "inhibition, %": 69.7
  },
  {
    "compound": "CCc1cccc(NS(=O)(=O)N2CCC(c3ccccc3F)CC2)n1",
    "inhibition, %": 89.2
  },
  {
    "compound": "CCc1cccc(NS(=O)(=O)N2CCC(C3CCN(C(=O)c4ccc(F)cc4)CC3)CC2)n1",
    "inhibition, %": 89
  },
  {
    "compound": "CCc1cccc(NS(=O)(=O)N2CCC(c3cccc(C(=O)Nc4ccccn4)c3)CC2)n1",
    "inhibition, %": 49.6
  },
  {
    "compound": "CCc1cccc(NS(=O)(=O)N2CCN(c3nc(C)cc(CC(C)C)n3)CC2)n1",
    "inhibition, %": 36.7
  },
  {
    "compound": "O=C1CN(S(=O)(=O)Nc2ccc3ccccc3n2)CCN1C1CCCC1",
    "inhibition, %": 84.6
  },
  {
    "compound": "Cc1cccc(NS(=O)(=O)N2CCN(c3ncccc3C#N)CC2)n1",
    "inhibition, %": 74.8
  },
  {
    "compound": "CCc1cccc(NS(=O)(=O)N2CCCC(OCc3ccccc3)C2)n1 (stereo not shown)",
    "inhibition, %": 77.1
  },
  {
    "compound": "Cc1cccc(NS(=O)(=O)N2CCN(c3ccccn3)CC2)n1",
    "inhibition, %": 57.8
  },
  {
    "compound": "Cc1cccc(NS(=O)(=O)N2CCOC(COc3cc(F)cc(F)c3)C2)n1 (stereo not shown)",
    "inhibition, %": 71.2
  },
  {
    "compound": "N#Cc1cccnc1N1CCN(S(=O)(=O)Nc2ccc3ccccc3n2)CC1",
    "inhibition, %": 92.2
  },
  {
    "compound": "Cc1cccc(NS(=O)(=O)N2CCN(c3ncccn3)CC2)n1",
    "inhibition, %": 75.1
  },
  {
    "compound": "CCc1cccc(NS(=O)(=O)N2CCc3conc3CC2)n1",
    "inhibition, %": 83.4
  },
  {
    "compound": "CCc1cccc(NS(=O)(=O)N2CCCC(COCC3CC3)CC2)n1 (stereo not shown)",
    "inhibition, %": 86.2
  },
  {
    "compound": "Cc1cccc(NS(=O)(=O)N2CCCCCCC2)n1",
    "inhibition, %": 91.8
  },
  {
    "compound": "CCc1cccc(NS(=O)(=O)N2CCC(COCc3cccc(OC)c3)CC2)n1",
    "inhibition, %": 40.7
  },
  {
    "compound": "CCc1cccc(NS(=O)(=O)N2CCCN(c3nc4cc(Cl)ccc4o3)CC2)n1",
    "inhibition, %": 90.3
  },
  {
    "compound": "CCc1cccc(NS(=O)(=O)N2CCN(c3cc(C)nc(C)c3)CC2)n1",
    "inhibition, %": 5.5
  },
  {
    "compound": "CCc1cccc(NS(=O)(=O)N2Cc3ccccc3C2)n1",
    "inhibition, %": 2.4
  },
  {
    "compound": "CCc1cccc(NS(=O)(=O)N2CCCCC2c2ccc(F)cc2)n1 (stereo not shown)",
    "inhibition, %": 90.1
  },
  {
    "compound": "CCc1cccc(NS(=O)(=O)N2CCN(c3nc4cc(OC)ccc4o3)CC2)n1",
    "inhibition, %": 48.9
  },
  {
    "compound": "CCc1cccc(NS(=O)(=O)N2CCN(c3ccc(C)cc3)C(=O)C2)n1",
    "inhibition, %": 24.9
  },
  {
    "compound": "CCc1cccc(NS(=O)(=O)N2CCC(c3ccc(C(=O)NC4CCCC4)cc3)CC2)n1",
    "inhibition, %": 88.4
  },
  {
    "compound": "CCc1cccc(NS(=O)(=O)N2CCCC(c3ccnc(N4CCCC4)n3)C2)n1 (stereo not shown)",
    "inhibition, %": 71.6
  }
]
